# assayed-system: T1, extracellular domain of rhesus monkey BCMA (rhesus monkey, UniProt F7FFA0 1-53)
# T1 construct: extracellular domain; also called RhBCMA
# T1 sequence (F7FFA0 entry or part of it): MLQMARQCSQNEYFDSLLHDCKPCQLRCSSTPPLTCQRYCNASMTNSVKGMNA
# experiment-description: Octet BLI; Fab 200 nM
pKd: −log10 of the molar value.
Mark t for reported pKd of 7 or greater; mark f for anything smaller.

Evaluate AB200-(2Vk31)_R2-VH-v29 (Fab, V domains shown) VH: QVQLVQSGAEVKKPGSSVKVSCKASGGTFSNYWIHWVRQAPGQGLEWMGATYRSHSTTYYNEKFKSRVTITADKSTSTAYMELSSLRSEDTAVYYCARGAIYHGFDVIDNWGQGTLVTVSS VL: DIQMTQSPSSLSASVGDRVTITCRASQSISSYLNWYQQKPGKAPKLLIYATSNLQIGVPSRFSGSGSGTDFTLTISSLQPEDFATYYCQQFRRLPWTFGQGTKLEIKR : pKd at minimum 7?
t

Same question for AB200-(2Vk31)_R2-VH-v21 (Fab, V domains shown) VH: QVQLVQSGAEVKKPGSSVKVSCKASGGTFSNYWIHWVRQAPGQGLEWMGGTYRSHSDTYYAQKFKSRVTITADKSTSTAYMELSSLRSEDTAVYYCARGAIFHGYDVIDNWGQGTLVTVSS VL: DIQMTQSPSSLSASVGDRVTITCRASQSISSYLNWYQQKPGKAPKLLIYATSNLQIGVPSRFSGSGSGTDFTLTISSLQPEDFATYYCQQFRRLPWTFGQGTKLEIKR please.
t

Same question for AB200-(2Vk31)_R2-CDR2-hs-v1 (Fab, V domains shown) VH: QVQLVQSGAEVKKPGSSVKVSCKASGGTFTNYWIHWVRQAPGQGLEWMGGIIPIFGTANYAQKFQGRVTITADKSTSTAYMELSSLRSEDTAVYYCARGAIFHGYDVIDNWGQGTLVTVSS VL: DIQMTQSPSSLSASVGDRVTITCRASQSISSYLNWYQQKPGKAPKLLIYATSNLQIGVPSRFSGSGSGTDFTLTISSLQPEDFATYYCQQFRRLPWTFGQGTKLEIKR please.
f

Same question for AB200-(2Vk31)_R2-VH-v50 (Fab, V domains shown) VH: QVQLVQSGAEVKKPGSSVKVSCKASGGTYSNYWIHWVRQAPGQGLEWMGGTYRIHSDTNYNQKFKSRVTITADKSTSTAYMELSSLRSEDTAVYYCARGAIYHGYDVIENWGQGTLVTVSS VL: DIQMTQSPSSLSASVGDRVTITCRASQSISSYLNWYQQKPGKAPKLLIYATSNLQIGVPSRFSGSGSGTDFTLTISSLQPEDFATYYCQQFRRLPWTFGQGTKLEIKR please.
f
